Target: Adenosine receptor A1 (Homo sapiens)
Sequence (P30542 whole entry): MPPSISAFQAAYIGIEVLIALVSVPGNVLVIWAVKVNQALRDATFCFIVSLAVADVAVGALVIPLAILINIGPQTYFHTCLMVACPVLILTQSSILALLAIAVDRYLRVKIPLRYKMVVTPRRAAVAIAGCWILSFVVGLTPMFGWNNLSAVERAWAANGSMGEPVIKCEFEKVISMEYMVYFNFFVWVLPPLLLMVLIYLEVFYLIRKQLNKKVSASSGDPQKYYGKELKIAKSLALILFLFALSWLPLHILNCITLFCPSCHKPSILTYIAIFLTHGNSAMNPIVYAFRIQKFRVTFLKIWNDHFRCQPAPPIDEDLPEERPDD
Test: Agonist activity at human adenosine A1 receptor
Listed here: items and their measured EC50.

Completed entries (count: 4):
Request: Reported EC50 for Adenosine receptor A1 (Homo sapiens), given CO[C@@H]1[C@H](O)[C@@H](CO)O[C@H]1n1cnc2c(NCc3cccc(I)c3)ncnc21 ?
Response: > 3 µM

Request: Reported EC50 for Adenosine receptor A1 (Homo sapiens), given CO[C@@H]1[C@H](O)[C@@H](CO)O[C@H]1n1cnc2c(N)ncnc21 ?
Response: > 3 µM

Request: Reported EC50 for Adenosine receptor A1 (Homo sapiens), given CNC(=O)[C@@]12CN[C@@H]([C@H](n3cnc4c(NCc5cccc(I)c5)ncnc43)O1)[C@@H]2O ?
Response: > 3 µM

Request: Reported EC50 for Adenosine receptor A1 (Homo sapiens), given CNC(=O)[C@H]1O[C@@H](n2cnc3c(NCc4cccc(I)c4)ncnc32)[C@H](OC)[C@@H]1O ?
Response: > 3 µM

Read the next record carefully.
Request: Reported EC50 for Adenosine receptor A1 (Homo sapiens), given OC[C@@]12CN[C@@H]([C@H](n3cnc4c(NCc5cccc(I)c5)ncnc43)O1)[C@@H]2O ?
Response: > 3 µM

Each recorded value in this set is attributed to ChEMBL document CHEMBL1149615.
